Data credit: PubChem BioAssay (NCI)

Reported GI50 values are given for each entry in this list.
System: NCI/ADR-RES ovarian
EXPERIMENTAL_PROTOCOL: NCI tumour cell line growth inhibition, 48 h
Where a SMILES comes first, the peptide text is derived from it. The star is where a group is joined. Palmitoyl = CCCCCCCCCCCCCCCC(=O)*

MOLECULE | GI50
CCCCCCN1C(=O)CN=C1Nc1ccc2cc3ccc(NC4=NCC(=O)N4CCCCCC)cc3nc2c1 | 3.32 µM
CN1CCN(C(=S)SCN2C(=O)c3ccccc3S2(=O)=O)CC1 | 34 µM
C=C(C)[C@@H]1CCC[C@]2(C(=O)O)CC[C@]3(C)[C@@H](CC[C@@H]4[C@@]5(C)C/C(=C/c6ccncc6)C(=O)C(C)(C)[C@@H]5CC[C@]43C)[C@@H]12 | 3.99 µM
C#Cc1ccc(-n2c(/C=C/c3cc(OC)c(OC)c(OC)c3)nc3ncccc3c2=O)cc1 | 3.61 µM
COc1ncnc2c(-c3ccco3)cn(COCc3ccccc3)c12 | > 50 µM
CCC1(N2C(=O)c3c(F)c(F)c(F)c(F)c3C2=O)C(=O)NC(=O)N(c2ccccc2)C1=O (stereo unspecified) | 7.69 µM
OCCCCC#Cc1ccccc1C#Cc1cnccn1 | 25.1 µM
CCOC(=O)Cc1csc(NC(=O)C(OC(=O)c2ccc(N)cc2)c2ccccc2)n1 (stereo unspecified) | 43.5 µM
COC1C(CO)OC(n2c3ccccc3c3c4c(c5c6ccccc6[nH]c5c32)C(=O)NC4=O)C(O)C1OC(=O)C(N)CCCCN (stereo unspecified) | > 50 µM
CCOc1cccnc1/C=N/NC(N)=S | 3.99 µM
C=CC[PH+](c1ccccc1)c1ccccc1.C=CC[PH+](c1ccccc1)c1ccccc1.[Cl][Pt][Cl] | 25.1 µM
Cn1c(COC(=O)NCCN2CCOCC2)nc2c(N3CCOCC3)nc(-c3ccccc3)nc21 | 1.93 µM
CCCCCCCCCCCCCCCC(=O)NC(CCCCN)C(=O)NCC(=O)NC(Cc1ccccc1)C(=O)N1CCCC1C(=O)NC(CO)C(=O)NC(Cc1ccc(O)cc1)C(=O)NC(CCCCN)C(=O)NC(CC(C)C)C(=O)NC(CCCN=C(N)N)C(=O)N1CCCC1C(=O)NCC(N)=O (stereo unspecified) (Palmitoyl-KGFPSYKLRPG-NH2; configuration not given here) | 20.7 µM
CCCCCCCCCCCCCCCCCC1=NC(C)(C)CN1CCO | 3.16 µM
Nc1ncnc2c1ncn2Cc1ccc(C23CC4CC(CC(C4)C2)C3)c(O)c1 | > 100 µM
CC(=O)Nc1ccc(-n2cnc3cc(-c4ccc(OCCN5CCCCC5)cc4)ccc32)cc1 | 7.75 µM

###

Reported TGI values are given for each entry in this list.
System: UACC-62 melanoma
EXPERIMENTAL_PROTOCOL: NCI tumour cell line growth inhibition, 48 h

MOLECULE | TGI
C=C(C)[C@]12CC(C)C34OC(/C=C\C=C\CCCCCCCCC)(O[C@@H]1[C@@H]3[C@@H]1O[C@]1(CO)[C@@H](O)[C@]1(O)C(=O)C(C)=C[C@@H]41)O2 (stereo partly drawn) | 24 µM
COc1ccc(-n2nc(C)c3c2N(C)C2(C)C[C@@H]4C3(C)[C@@H]3CC4(C2)N(C)c2c(c(C)nn2-c2ccc(OC)cc2)[C@H]3C)cc1 (stereo partly drawn) | > 100 µM
C[C@]12CC[C@@H]3c4ccc(O)cc4CC[C@H]3[C@@H]1CC[C@@H]2NS(=O)(=O)c1ccc(-c2ccccc2)cc1 | 20 µM
C=C1C(=O)O[C@H]2C(=O)[C@H](C)CCC[C@@](C)(O)/C=C\C[C@@]3(C)O[C@@H]3C[C@@H]12 | 37.8 µM
COc1cc(OC)c(/C=C/S(=O)(=O)Cc2ccc(OC)c(NCC(=O)O)c2)c(OC)c1 | > 100 µM
CC(=O)c1nccc2c1c(C)nc1ccccc12 | > 100 µM
O=C(NCCCCl)c1c(O)c2ccccc2[nH]c1=O | > 100 µM
Cc1nn(C(=O)c2ccccc2O)c2c1C(c1ccc(O)cc1)SC(N)=N2 (stereo not drawn) | > 10 µM

###

Test system: U251 CNS
EXPERIMENTAL_PROTOCOL: NCI tumour cell line growth inhibition, 48 h

MOLECULE | VALUE_UNIT | VALUE_COMPARATOR | TGI
O=C(O)c1ccccc1-c1ccccc1C(=O)c1ccccc1 | µM | > | 100
O=C(CCCN1CCc2[nH]c3cc(F)ccc3c2C1)c1ccc(F)cc1 | µM | = | 29.8
Nc1ccc2c(c1)CN1C(=O)c3ccccc3C1=N2 | µM | = | 121
O=C(O)CCCc1nc2c(n1-c1ccccc1)C(=O)c1ccccc1C2=O | µM | > | 100
O=C(NCCCCl)c1c(O)c2ccccc2[nH]c1=O | µM | > | 100
N#Cc1ccc(N2Cc3cc(Cl)ccc3OC3=C2C(=O)N(Cc2ccccc2)C3=O)cc1 | µM | = | 2.98
O=C(NO)C(O)C(O)C(O)C(O)CO (stereo not given) | µM | > | 100
COc1ccc(-n2nc(C)c3c2N(C)C2(C)C[C@@H]4C3(C)[C@@H]3CC4(C2)N(C)c2c(c(C)nn2-c2ccc(OC)cc2)[C@H]3C)cc1 (stereo not given in full) | µM | = | 22.5
O=C(O)CNC(=O)c1cccc2c(=O)c3ccccc3[nH]c12 | µM | > | 100
COc1cc(O)c2c(c1)C(O)C(O)CC1OC1C(=O)/C=C/CC(C)OC2=O (stereo not given) | µM | = | 25

###

System: OVCAR-3 ovarian
EXPERIMENTAL_PROTOCOL: NCI tumour cell line growth inhibition, 48 h; in the data active = GI50 below about 0.43 µM; inactive = the rest
Classes used: t (active), f (inactive)

COMPOUND | TARGET_SYSTEM | CLASSIFICATION
CC1SC2(CCCCC2)N(NC(=O)c2[nH]c3ccc(F)cc3c2-c2ccccc2)C1=O (stereo unspecified) | OVCAR-3 ovarian | f
COc1ccc(N(Cc2cc(OC)c(OC)c(OC)c2)C2OC(=O)c3ccccc32)cc1 (stereo unspecified) | OVCAR-3 ovarian | t
CC(=O)Nc1ccc(-n2cnc3cc(-c4ccc(OCCN5CCCCC5)cc4)ccc32)cc1 | OVCAR-3 ovarian | f
COC1C(CO)OC(n2c3ccccc3c3c4c(c5c6ccccc6[nH]c5c32)C(=O)NC4=O)C(O)C1OC(=O)C(N)CCCCN (stereo unspecified) | OVCAR-3 ovarian | f
COc1cc(C(=O)/C=C/c2c(C(F)(F)F)nc3sccn23)cc(OC)c1OC | OVCAR-3 ovarian | f
COC(=O)C1=C(O)C(C(=O)OC)[C@@]2(O)[C@@H](C(=O)OC)C(c3ccc(OC(=O)C(CC(C)C)NC(C)=O)cc3)C[C@@H]1[C@@H]2C(=O)OC (stereo partly specified) | OVCAR-3 ovarian | f
CC(C)n1nc(C#Cc2cccc(NC(=O)c3cccc(C(F)(F)F)c3)c2)c2c(N)ncnc21 | OVCAR-3 ovarian | f
CC(C)(C)c1ccc(S(=O)(=O)N[C@H]2CC[C@H]3[C@@H]4CCc5cc(O)ccc5[C@H]4CC[C@]23C)cc1 | OVCAR-3 ovarian | f
O=C(Nc1ccccc1)Nc1ccccc1CNc1nc(Nc2ccc(OCCN3CCCC3)cc2)ncc1Cl | OVCAR-3 ovarian | f
CCOC(=O)C1=C(c2ccccc2)N(Cc2ccccc2)C2(O)C=CC(=O)C3C(=O)N(c4ccccc4)C(=O)C132 (stereo unspecified) | OVCAR-3 ovarian | f
Cc1csc(Nc2nc(-c3cccc(Cl)c3)nc(C(Cl)(Cl)Cl)n2)n1 | OVCAR-3 ovarian | f

###

Reported TGI values are given for each entry in this list.
Test system: MALME-3M melanoma
EXPERIMENTAL_PROTOCOL: NCI tumour cell line growth inhibition, 48 h
Where a SMILES comes first, the peptide text is derived from it. [ ]: non-standard residue; d: D form. The star is where a group is joined. Phe(4-NO2) = N[CH](Cc1ccc([N+](=O)[O-])cc1)C(=O)O; Boc = CC(C)(C)OC(=O)*; OtBu = CC(C)(C)O*
EXPERIMENTAL_ENDPOINT: TGI

MOLECULE | EXPERIMENTAL_ENDPOINT | ASSAY_RESULT
O=C1CC2Sc3ccccc3N=C2N1c1ccc(Cl)cc1Cl (centres undefined) | TGI | > 100 µM
CCCCCCCCCCCCCCCCCC1=NC(C)(C)CN1CCO | TGI | 5.6 µM
N#CC(=C=[N-])[n+]1ccc(Cl)cc1 | TGI | 30.6 µM
Cc1cc(S(=O)(=O)NC(=NCC(=O)NN)NN)c(S)cc1Cl | TGI | > 10 µM
CC(C)(C)NCCC(O)c1cc(C(F)(F)F)nc2c(C(F)(F)F)cccc12 (centres undefined) | TGI | 27.2 µM
Cc1csc(Nc2nc(-c3cccc(Cl)c3)nc(C(Cl)(Cl)Cl)n2)n1 | TGI | > 33.3 µM
Cc1c(-c2coc(-c3ccc(Cl)cc3)n2)c(=O)n(-c2ccccc2)n1C | TGI | > 100 µM
COc1ccc(-c2c(C(C)=O)c(C)n(C3OC(CO)C(O)C(O)C3O)c(=S)c2C#N)cc1 (centres undefined) | TGI | > 100 µM
Cn1c(COC(=O)NCCN2CCOCC2)nc2c(N3CCOCC3)nc(-c3ccccc3)nc21 | TGI | 3.02 µM
CCC1(O)CN(CCOC)[C@H]2C[C@@H]1C(=O)c1[nH]c3ccccc3c12 (some centres undefined) | TGI | > 100 µM
O=C(CCCN1CCc2[nH]c3cc(F)ccc3c2C1)c1ccc(F)cc1 | TGI | 26 µM
CC(=O)Oc1ccc2c(c1)c1c(OC(C)=O)c3ccccc3c(OC(C)=O)c1n2Cc1cccc(C)c1 | TGI | > 100 µM
c1ccc(COc2ncccc2C2SCCCS2)cc1 | TGI | > 100 µM
O=C(Cc1nc2ccc([N+](=O)[O-])cc2[nH]c1=O)C(=O)Nc1cc(Cl)c(Cl)cc1Cl | TGI | > 100 µM
COc1cc([C@@H]2c3cc4c(cc3[C@@H](Nc3ccc(Cl)cc3C(=O)c3ccccc3Cl)[C@H]3COC(=O)[C@H]23)OCO4)cc(OC)c1OC | TGI | > 100 µM
O=c1[nH]c2cc(O)ccc2n2cc3c(F)cccc3c12 | TGI | > 100 µM
CCOC(=O)NNC(=O)NC12CC3CC(CC(C3)C1)C2 | TGI | > 100 µM
COc1ccc(-n2nc(C)c3c2N(C)C2(C)C[C@@H]4C3(C)[C@@H]3CC4(C2)N(C)c2c(c(C)nn2-c2ccc(OC)cc2)[C@H]3C)cc1 (some centres undefined) | TGI | > 100 µM
C/C(=N/Nc1ccc([N+](=O)[O-])cc1[N+](=O)[O-])C(CC(C(=O)Nc1ccccc1C)/C(C)=N\Nc1ccc([N+](=O)[O-])cc1[N+](=O)[O-])C(=O)Nc1ccccc1C (centres undefined) | TGI | > 63.1 µM
CNC(=O)OCC1=C(COC(=O)NC)CN(c2ccccc2)C1 | TGI | > 100 µM
O=[N+]([O-])O.[NH-]C1CCCCC1[NH-].[NH-]C1CCCCC1[NH-].[NH-]C1CCCCC1[NH-].[OH-].[OH-].[OH-].[Pt+4].[Pt+4].[Pt+4] (centres undefined) | TGI | 2.7 µM
CC(C)CC1c2[nH]c3ccccc3c2C[C@H]2C(=O)NC(COC(C)(C)C)C(=O)N12 (some centres undefined) | TGI | 48.2 µM
COc1ncnc2c(-c3ccco3)cn(COCc3ccccc3)c12 | TGI | > 50 µM
C=CC1(CCC(Br)C(C)(C)Cl)CO1 (centres undefined) | TGI | > 10 µM
CCOC(=O)C(Cc1c(-c2[nH]c3ccccc3c2CC(NC(=O)CNC(C)=O)C(=O)OCC)[nH]c2ccccc12)NC(=O)CNC(C)=O (centres undefined) | TGI | 38.2 µM
COc1cc2c(cc1OC)C1Cc3ccccc3CN1CCC2 (centres undefined) | TGI | > 100 µM
COC(=O)C1CCC(=NC2c3ccccc3-c3ccccc32)N1 (centres undefined) | TGI | > 100 µM
CC[C@@]1(O)C(=O)OCc2c1cc1n(c2=O)Cc2cc3c(NC(C)=O)c(O)ccc3nc2-1 | TGI | 65.5 µM
CC(=O)Nc1ccc(C(=O)N2N=C(C)/C(=C/c3cccc(O)c3)C2=O)cc1 | TGI | > 100 µM
CN(C)CCNC(=O)c1cccc2c(NC(CS)C(=O)O)c3ccccc3nc12 (centres undefined) | TGI | 11.3 µM
COc1ccccc1NC(=O)C(=O)C1C(=O)Nc2ccccc2S1=O (centres undefined) | TGI | > 100 µM
COc1cc2c(cc1OC)[C@H]1C(=O)c3cc4c(cc3[C@H]1N(C)C2=O)OCO4 | TGI | > 89.5 µM
OCc1ccccc1OC1OC(CO)C(O)C(O)C1O (centres undefined) | TGI | > 100 µM
O=c1c2cc(F)ccc2sc2c(NCCCN3CCCC3)nc3ccccc3c12 | TGI | 3.37 µM
OCCCCC#Cc1ccccc1C#Cc1cnccn1 | TGI | > 100 µM
COc1ccc(C[C@H]2COC(=O)[C@@H]2Cc2cc(OC)c(OC)c(OC)c2)cc1OC | TGI | > 100 µM
CC(=O)OCC1OC(n2c3c(c(-c4ccco4)c(C#N)c2=S)CCCC3)C(OC(C)=O)C(OC(C)=O)C1OC(C)=O (centres undefined) | TGI | > 31.6 µM
COC(=O)C(Cc1ccc([N+](=O)[O-])cc1)NC(=O)C(CC(=O)OC(C)(C)C)NC(=O)OC(C)(C)C (centres undefined) (Boc-Asp(OtBu)-[Phe(4-NO2)]-OMe; configuration not given here) | TGI | > 100 µM
O=C(O)CCCc1nc2c(n1-c1ccccc1)C(=O)c1ccccc1C2=O | TGI | 51.8 µM
